test system: AUT-PK 500; test: Protein kinase assay: autophosphorylation of AUT-PK 500 (32P incorporation from [gamma-32P] ATP); assay type: biochemical, rat; conditions: divalent cations
Property: concentration giving peak activity of the enzyme; scope: individual molecules

In [3]: df
Out[3]:
   entry_smiles  result_value
0        [Co+2]          5 mM
1        [Ca+2]         20 mM
2        [Sr+2]         50 mM

Input: I have this molecule here, [Mg+2] , and I need its recorded concentration giving peak activity of the enzyme.
Output: 10 mM

Input: I have this molecule here, [Mn+2] , and I need its recorded concentration giving peak activity of the enzyme.
Output: 5 mM
